conditions: [M-H]-; instrument: DT; single field, calibrated with ESI Low Concentration Tuning Mix (Agilent)
Field: collision cross section (N2). Provide a value for each of the compounds that follow.
Answers are plain numbers, in Å².

>>> observed_value("O=C(O)c1ccc[nH]1 [PYRROLE-2-CARBOXYLATE]")
113.8
>>> observed_value("CC(C)[C@H](N)C(=O)O")
124.3
>>> observed_value("O=C(CO)[C@@H](O)[C@H](O)[C@H](O)COP(=O)(O)O [FRUCTOSE 6-PHOSPHATE]")
144.1
>>> observed_value("CN1CC(=O)N=C1N")
118.5
>>> observed_value("CNC[C@H](O)c1ccc(O)c(O)c1 [EPINEPHRINE]")
140.1

List collision cross section (N2) for every entry below, keeping the order given.
1. CSC[C@H]1O[C@@H](n2cnc3c(N)ncnc32)[C@H](O)[C@@H]1O
2. NC[C@H](O)CC[C@H](N)C(=O)O [5-HYDROXYLYSINE]

1. 166.9
2. 134
